Hello, the source for this data is patent US7101878B1, in case you need it.

Examples of compounds with documented Dog pmol/min/mg 1 μM follow.
# Test method notes: Metabolism rate, pmol/min/mg at 1 μM, dog
# Assay type: in vitro ADME
# Experimental conditions: 1 μM compound
Quick note: give the figure in pmol/min/mg, leave out the unit.

In the examples that follow, each entry is paired with its recorded Dog pmol/min/mg 1 μM.
> print(dat)
                                smiles.repr     quantity.measured  assay.result
1  COc1cc(OC)c(NC(=O)c2ccc(Cc3cc4c(cc3OC)C(C)(C)CCC4(C)C)o2)c(OC)c1  Dog pmol/min/mg 1 μM          2301
2  Cc1cc2c(cc1Cc1ccc(C(=O)NCc3cccc(CNc4nccc(NC[C@@H]5CCCO5)n4)c3)o1)C(C)(C)CCC2(C)C  Dog pmol/min/mg 1 μM          1960
3  Cc1cc2c(cc1Cc1ccc(C(=O)NCc3cccc(CNc4ccnc(NC[C@@H]5CCCO5)n4)c3)o1)C(C)(C)CCC2(C)C  Dog pmol/min/mg 1 μM          3071
4  COc1cc(OC)c(NC(=O)c2ccc(Cc3cc4c(cc3C)C(C)(C)CCC4(C)C)o2)c(OC)c1  Dog pmol/min/mg 1 μM          2159

Lab note: measured Dog pmol/min/mg 1 μM of COc1cc(OC)c(NC(=O)c2ccc(Cc3cc4c(cc3C)C(C)(C)CCC4(C)C)o2)c(OC)c1C#N was 2456
